# Read-out: Low-density lipoprotein receptor (LDLR), LDLR (gene 3949)
# procedure_details: BSK_CASM3C_LDLR: BioMAP Diversity Plus: CASM3C Assay for Low-density lipoprotein receptor (LDLR) Biomarker Activity (AID 2283045);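 note: LDLR protein level on the cell surface quantified by ELISA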
# experimental_setup: primary human coronary artery smooth muscle cells; actives raise or lower the signal
Activity calls are given as the source filed them. Rule for the calls: active = hit-call score of the fitted dose curve at least 0.9, where 1 is the maximum; inactive = score below 0.9.
value_type: AC50

CCCCCCCCOc1ccc(C(=O)c2ccccc2)c(O)c1; inactive
O=C(O)c1ccccc1-n1cc(C(=O)O)c(=O)c2cc(Nc3c(F)cc(F)cc3Cl)c(Cl)cc21; inactive
CCOC(=O)O[C@H](C)OC(=O)c1ccc2c(c1)cc(C(=O)NC1CCN(C(C)C)CC1)n2Cc1cc(-c2ccc(Cl)s2)on1; inactive
CC(C)(C)c1cc(/C=C2\SC(N)=NC2=O)cc(C(C)(C)C)c1O; 29.1 µM (active)
